Target: N-arachidonyl glycine receptor (Homo sapiens)
Sequence (whole entry): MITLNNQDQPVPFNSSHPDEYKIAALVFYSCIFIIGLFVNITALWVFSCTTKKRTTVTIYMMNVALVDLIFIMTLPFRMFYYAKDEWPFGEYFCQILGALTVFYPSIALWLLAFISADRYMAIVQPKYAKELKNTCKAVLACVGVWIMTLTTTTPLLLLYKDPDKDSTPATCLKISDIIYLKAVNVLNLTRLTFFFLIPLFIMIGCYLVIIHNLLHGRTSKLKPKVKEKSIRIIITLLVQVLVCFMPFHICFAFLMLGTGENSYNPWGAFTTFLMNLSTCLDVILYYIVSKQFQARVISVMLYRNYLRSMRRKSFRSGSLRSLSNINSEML
Test: Agonist activity at recombinant human GPR18 expressed in CHO cells assessed as increase in beta-arrestin recruitment incubated for 60 mins measured for 1 sec by luminescence assay
Assay type: functional, cell-based
Entries and their measured %max follow.
Please provide the amount together with its unit, number first.

Use these answered entries as a reference point.
| querySmiles | %max |
| --- | --- |
| O=C1/C(=C/c2cccc(OCCCCCCCCOc3ccc(Cl)cc3)c2)N=C2SCCCN12 | -25% |
| O=C1NC(SCCc2ccccc2)=N/C1=C\c1cccc(OCc2ccc(Cl)cc2)c1 | 2% |

GET /values?readout=%max&system=N-arachidonyl glycine receptor (Homo sapiens)&item= Cc1ccc(COc2cccc(/C=C3\N=C4SCCCN4C3=O)c2)cc1
2%

GET /values?readout=%max&system=N-arachidonyl glycine receptor (Homo sapiens)&item= O=C1/C(=C/c2cccc(OCCCCCOc3ccc(Cl)cc3)c2)N=C2SCCCN12
-38%

GET /values?readout=%max&system=N-arachidonyl glycine receptor (Homo sapiens)&item= O=C1/C(=C/c2cccc(OCCOc3ccc(Cl)cc3)c2)N=C2SCCCN12
-10%
